Experimental Details: soluble on expression in E. coli; label from the status in PepcDB or PDB records
Parameter Measured: soluble on expression in E. coli

>>> result_value("MAHHHHHHMKKSINILVCNNYLIHDFLSFFKNSDIDVGTKMDFIQKKASQVRIILLNGNEIMPGINVNYLEQIKEVFINAKIYVRYVVQEVGTVSIMELGQLEQDNIPYERKLAGYVLPNVHVKIDSKTNVMKIKSDNVFSQYYNNGKLTSQAFDQGGFFKTKYVASLAENALLKIEGIHNDMENIPDEYYLYFKQRRDKMEKHPPGYLKRVPLQGQIWGNFHANRRNWKRKF")
"not soluble"
>>> result_value("VGSFYGQYLSIRKTEALLRNELNALTPATVMELADKLPEKSSSLVISYIRQVLQAHESPAQIQRLLANFEIAADKDLAISKTLTKLGP")
"not soluble"
